# Target system: myeloperoxidase (Homo sapiens (Human), UniProt P05164)
# Sequence (P05164 49-745): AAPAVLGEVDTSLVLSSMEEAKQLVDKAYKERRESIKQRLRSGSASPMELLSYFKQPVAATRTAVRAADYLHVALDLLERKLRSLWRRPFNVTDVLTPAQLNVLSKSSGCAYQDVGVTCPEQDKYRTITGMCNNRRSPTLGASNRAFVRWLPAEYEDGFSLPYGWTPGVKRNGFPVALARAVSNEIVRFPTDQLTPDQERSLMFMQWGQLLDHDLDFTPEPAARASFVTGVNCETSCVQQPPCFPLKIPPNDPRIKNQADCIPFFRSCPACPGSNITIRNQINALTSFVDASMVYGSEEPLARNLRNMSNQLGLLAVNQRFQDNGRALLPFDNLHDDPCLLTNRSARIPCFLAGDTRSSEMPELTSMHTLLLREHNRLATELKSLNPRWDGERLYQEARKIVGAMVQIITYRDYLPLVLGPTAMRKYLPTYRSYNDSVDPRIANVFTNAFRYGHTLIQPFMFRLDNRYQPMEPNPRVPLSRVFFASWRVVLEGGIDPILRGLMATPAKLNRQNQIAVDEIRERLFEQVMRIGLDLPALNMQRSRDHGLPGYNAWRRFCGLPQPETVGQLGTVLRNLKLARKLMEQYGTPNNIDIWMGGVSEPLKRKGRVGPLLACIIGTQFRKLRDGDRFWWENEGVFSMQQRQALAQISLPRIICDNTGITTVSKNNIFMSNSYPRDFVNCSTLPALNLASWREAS
# Protocol summary: MPO Chlorination Assay (APF Assay)
# Format: biochemical
# Protocol conditions: potency range class
# Procedure: [formula] where A=minimal Y value (activity level of inhibited sample), B=maximal Y value (activity level of uninhibited sample), C=Log IC50, D=Hill Slope, x=concentration of inhibitor. MPO Chlorination Assay (APF Assay) MPO chlorination activity was measured in 100 mM KPi (pH 7.4) by utilizing the non-fluorescent reagent Aminophenyl fluorescein (APF, Invitrogen Cat. #A36003). APF is cleaved by (—OCl) to yield the fluorescent compound fluorescein. […]
pIC50: −log10 of the molar value.
Observable: pIC50

For this compound ( Nc1cc(C(CCN[C@H]2CC[C@H](c3ccccc3)CC2)c2cnn(C3CCC3)c2)c2nn[nH]c2n1 (stereo partly shown) ), measured pIC50 is 7.00 to 9.00

For this compound ( Nc1cc(C(CCCc2cccc3ccccc23)c2cnn(Cc3ccc4c(c3)CCNC4)c2)c2nn[nH]c2n1 (stereo not shown) ), measured pIC50 is 7.00 to 9.00

For this compound ( Nc1cc([C@H](CCN[C@H]2CC[C@H](c3ccccc3)CC2)c2cnn(Cc3cccc(OC(F)F)c3)c2)c2nn[nH]c2n1 [Example 33A] ), measured pIC50 is 6.00 to 7.00

For this compound ( Nc1cc(C(CCCc2ccccc2)c2cnn(Cc3cccc(C4CCNCC4)c3)c2)c2nn[nH]c2n1 (stereo not shown) ), measured pIC50 is 7.00 to 9.00

For this compound ( Nc1cc(C(CCN[C@H]2C[C@H](Cc3ccccc3)[C@@H](O)C2)c2cnn(CCc3cccc(O)c3)c2)c2nn[nH]c2n1 (stereo partly shown) ), measured pIC50 is 6.00 to 7.00

For this compound ( Nc1cc(C(CCN2C[C@H](Cc3ccccc3)[C@@H](O)C2)c2cnn(Cc3cccc(O)c3)c2)c2nn[nH]c2n1 (stereo partly shown) ), measured pIC50 is 7.00 to 9.00

For this compound ( Nc1cc(C(CCN[C@H]2CC[C@H](c3ccccc3)CC2)c2cnn(CC3CCC3)c2)c2nn[nH]c2n1 (stereo partly shown) ), measured pIC50 is 6.00 to 7.00

====

# Target system: myeloperoxidase (Homo sapiens (Human), UniProt P05164)
# Protocol summary: MPO Peroxidation Assay (Amplex Red Assay)
# Type: biochemical
# Protocol conditions: potency range class
pIC50: −log10 of the molar value.
Record form. Attribute: pIC50. Fill in for each entry.

For this compound ( CCC(c1cnn(Cc2cccc(O)c2)c1)c1cc(N)nc2[nH]nnc12 (stereo not drawn) ), measured pIC50 is 6.00 to 7.00

For this compound ( Nc1cc(C(CCN[C@H]2CC[C@H](c3ccccc3)CC2)c2cncc(F)c2)c2nn[nH]c2n1 (stereo partly drawn) ), measured pIC50 is 5.00 to 6.00

For this compound ( Nc1cc(C(CCN[C@H]2CC[C@H](c3ccccc3)CC2)c2cnn(C3CCC3)c2)c2nn[nH]c2n1 (stereo partly drawn) ), measured pIC50 is 6.00 to 7.00

For this compound ( Nc1cc(C(CCO)c2cnn(Cc3cccc(OC4CCC(N)C4)c3)c2)c2nn[nH]c2n1 (stereo not drawn) ), measured pIC50 is 6.00 to 7.00

For this compound ( Nc1cc(C(CCNCc2ccccc2)c2cnn(Cc3cccc(O)c3)c2)c2nn[nH]c2n1 (stereo not drawn) ), measured pIC50 is 6.00 to 7.00

For this compound ( Cn1cc(C(CCNCc2ccccc2)c2cc(N)nc3[nH]nnc23)cn1 (stereo not drawn) ), measured pIC50 is 6.00 to 7.00

For this compound ( Nc1cc(C(CCN[C@H]2CC[C@H](c3ccccc3)CC2)c2cnn(Cc3ccc(Cl)cc3)c2)c2nn[nH]c2n1 (stereo partly drawn) ), measured pIC50 is 6.00 to 7.00

For this compound ( Nc1cc([C@@H](CCN[C@H]2CC[C@H](c3ccccc3)CC2)c2cnn(Cc3cccc(OC(F)F)c3)c2)c2nn[nH]c2n1 [Example 33B] ), measured pIC50 is 7.00 to 9.00

For this compound ( Nc1cc([C@H](CCN[C@H]2CC[C@H](c3ccccc3)CC2)c2cnn(Cc3cccc(OC(F)F)c3)c2)c2nn[nH]c2n1 [Example 33A] ), measured pIC50 is 5.00 to 6.00

For this compound ( Nc1cc(C(CCCc2cccc3ccccc23)c2cnn(Cc3ccc4c(c3)CCNC4)c2)c2nn[nH]c2n1 (stereo not drawn) ), measured pIC50 is 5.00 to 6.00

For this compound ( Nc1cc(C(CCNCc2cccc(O)c2)c2cnn(Cc3cccc(O)c3)c2)c2nn[nH]c2n1 (stereo not drawn) ), measured pIC50 is 5.00 to 6.00

For this compound ( Nc1cc(C(CCCc2ccccc2)c2cnn(Cc3cccnc3)c2)c2nn[nH]c2n1 (stereo not drawn) ), measured pIC50 is 6.00 to 7.00

For this compound ( Nc1cc(C(CCN[C@H]2CC[C@H](c3ccccc3)CC2)c2cc[nH]c(=O)c2)c2nn[nH]c2n1 (stereo partly drawn) ), measured pIC50 is 6.00 to 7.00

For this compound ( Nc1cc(C(CCN[C@@H]2C[C@@H](Cc3ccccc3)[C@H](O)C2)c2cnn(Cc3cccc(O)c3)c2)c2nn[nH]c2n1 (stereo partly drawn) ), measured pIC50 is 7.00 to 9.00

For this compound ( CCCC(c1cnn(Cc2ccc3c(c2)CCNC3)c1)c1cc(N)nc2[nH]nnc12 (stereo not drawn) ), measured pIC50 is 6.00 to 7.00

====

Record form. Attribute: IC50. Fill in for each entry.
# Target system: myeloperoxidase (Homo sapiens (Human))
# Protocol summary: MPO Peroxidation Assay (Amplex Red Assay)
# Format: biochemical
# Protocol conditions: potency range class

For this compound ( Nc1cc(C(CCNC23CCC(c4ccccc4)(CC2)[C@H](O)C3)c2cnn(Cc3cccc(O)c3)c2)c2nn[nH]c2n1 (stereo partly shown) ), measured IC50 is 1 to 100 nM

For this compound ( Nc1cc(C(CCCC2CCCCC2)c2cnn(Cc3ccc4c(c3)CCNC4)c2)c2nn[nH]c2n1 (stereo not shown) ), measured IC50 is 101 to 999 nM

For this compound ( Nc1cc(C(CCN[C@H]2CC[C@H](c3ccccc3)CC2)c2cnn(C3CCC(F)(F)C3)c2)c2nn[nH]c2n1 (relative stereo) ), measured IC50 is 101 to 999 nM

For this compound ( Nc1cc(C(CCOCc2ccccc2)c2cnn(Cc3ccc4c(c3)CCNC4)c2)c2nn[nH]c2n1 (stereo not shown) ), measured IC50 is 1000 to 10000 nM

For this compound ( Nc1cc(C(CCNC2CCC(c3ccccc3)CC2)c2cnn(Cc3ccccc3)c2)c2nn[nH]c2n1 (stereo not shown) ), measured IC50 is 101 to 999 nM

For this compound ( Nc1cc(C(CCN[C@H]2CC[C@H](c3ccccc3)CC2)c2cnn(Cc3cccc4ccccc34)c2)c2nn[nH]c2n1 (stereo partly shown) ), measured IC50 is 101 to 999 nM

For this compound ( CC(c1cnn(Cc2ccc3c(c2)CCNC3)c1)c1cc(N)nc2[nH]nnc12 (stereo not shown) ), measured IC50 is 101 to 999 nM

====

# Target system: UniProt P05164
# Protocol summary: MPO Chlorination Assay (APF Assay)
# Type: biochemical
# Protocol conditions: potency range class
Observable: IC50

For this molecule ( Nc1cc(C(CCN[C@H]2CC[C@H](c3ccccc3)CC2)c2cnn(Cc3cccc(OC(F)F)c3)c2)c2nn[nH]c2n1 (stereo partly shown) [Example 25] ), measured IC50 is 1 to 100 nM

For this molecule ( Nc1cc(C(CCNCc2cccc(O)c2)c2cnn(Cc3cccc(O)c3)c2)c2nn[nH]c2n1 (stereo not shown) [Example 49] ), measured IC50 is 101 to 999 nM

For this molecule ( Nc1cc(C(CCNC2CCc3ccccc32)c2cnn(Cc3ccccc3)c2)c2nn[nH]c2n1 (stereo not shown) [Example 17] ), measured IC50 is 1 to 100 nM

For this molecule ( Nc1cc(C(CCN[C@H]2CC[C@H](c3ccccc3)CC2)c2ccc(F)nc2)c2nn[nH]c2n1 (stereo partly shown) [Example 45] ), measured IC50 is 101 to 999 nM

====

Record form. Attribute: IC50. Fill in for each entry.
# Target system: myeloperoxidase (Homo sapiens (Human), UniProt P05164)
# Protocol summary: MPO Chlorination Assay (APF Assay)
# Format: biochemical
# Protocol conditions: potency range class

For this molecule ( Nc1cc(C(CCCC2NCCc3ccccc32)c2cnn(Cc3ccccc3)c2)c2nn[nH]c2n1 (stereo not drawn) ), measured IC50 is 1 to 100 nM

For this molecule ( Nc1cc(C(CCN[C@H]2CC[C@H](c3ccccc3)CC2)c2cc[nH]n2)c2nn[nH]c2n1 (stereo partly drawn) ), measured IC50 is 101 to 999 nM

For this molecule ( Nc1cc([C@@H](CCN[C@H]2CC[C@H](c3ccccc3)CC2)c2cnn(Cc3cccc(OC(F)F)c3)c2)c2nn[nH]c2n1 [Example 33B] ), measured IC50 is 1 to 100 nM

For this molecule ( Nc1cc(C(CCN[C@H]2CC[C@H](c3ccccc3)CC2)c2cnn(C3CCCC3)c2)c2nn[nH]c2n1 (stereo partly drawn) ), measured IC50 is 1 to 100 nM

For this molecule ( Nc1cc(C(CCC(c2ccccc2)c2ccccc2)c2cnn(Cc3ccc4c(c3)CCNC4)c2)c2nn[nH]c2n1 (stereo not drawn) ), measured IC50 is 1 to 100 nM

For this molecule ( Nc1cc(C(CCN[C@H]2CC[C@H](c3ccccc3)CC2)c2cnn(C3CCC(F)(F)C3)c2)c2nn[nH]c2n1 (relative stereo) ), measured IC50 is 1 to 100 nM

For this molecule ( Nc1cc(C(CCN[C@H]2CC[C@H](c3ccccc3)CC2)c2cnn(C3CC(F)C3(F)F)c2)c2nn[nH]c2n1 (stereo partly drawn) ), measured IC50 is 1 to 100 nM

For this molecule ( Nc1cc(C(CCN[C@H]2CC[C@H](c3ccccc3)CC2)c2cnn(Cc3cccc4ccccc34)c2)c2nn[nH]c2n1 (stereo partly drawn) ), measured IC50 is 1 to 100 nM

For this molecule ( Nc1cc(C(CCOCc2ccccc2)c2cnn(Cc3ccc4c(c3)CCNC4)c2)c2nn[nH]c2n1 (stereo not drawn) ), measured IC50 is 101 to 999 nM

Numbers sourced from patent US11059818B2.
